The following compounds are shown together with reported melting point values.

Look over these answered cases.
COMPOUND | ASSAY_READOUT | RESULT_VALUE
CS(=O)c1nnc2c3ccccc3c(-c3ccccc3)nn12 (stereo not given) | melting point | 215 to 217 °C
Nc1c(Oc2ccc(F)c(C(F)(F)F)c2)nc(Br)nc1Oc1ccc(F)c(C(F)(F)F)c1 | melting point | 184 to 186 °C
Cc1cc(F)ccc1-c1ccc(S(=O)(=O)N2c3ccccc3CC2C(=O)NCCOc2cc(F)c(C(=O)O)c(F)c2)cc1 (stereo not given) | melting point | 97 to 111 °C
CSc1nc(N)c([N+](=O)[O-])c(N2CCS(=O)CC2)n1 | melting point | 239 to 242 °C
COc1cc(CCNC(=O)c2ccccc2)cc2c1OC(C)(C)C2 | melting point | 137 to 138 °C

Which measured melting point value corresponds to "O=C(c1ccc([N+](=O)[O-])cc1)N1Cc2ccccc2-c2ccccc21" ?
153 to 154 °C

Same question for "O=C1N=NC(CO)=C1c1ccccc1" please.
165 to 168 °C

Same question for O=C(O)c1ccccc1OC1CCOC1=O (stereo not given) please.
113 to 115 °C
